molecular target: T1, mouse DLL4 on cells (mouse, UniProt Q9JI71 27-686); assay: competition FACS: huNotch-1-biotin to DLL4 cells
T1 construct: whole, on cells; also called mouse DLL4-293G; mu DLL4 cells
T1 sequence (Q9JI71 27-686): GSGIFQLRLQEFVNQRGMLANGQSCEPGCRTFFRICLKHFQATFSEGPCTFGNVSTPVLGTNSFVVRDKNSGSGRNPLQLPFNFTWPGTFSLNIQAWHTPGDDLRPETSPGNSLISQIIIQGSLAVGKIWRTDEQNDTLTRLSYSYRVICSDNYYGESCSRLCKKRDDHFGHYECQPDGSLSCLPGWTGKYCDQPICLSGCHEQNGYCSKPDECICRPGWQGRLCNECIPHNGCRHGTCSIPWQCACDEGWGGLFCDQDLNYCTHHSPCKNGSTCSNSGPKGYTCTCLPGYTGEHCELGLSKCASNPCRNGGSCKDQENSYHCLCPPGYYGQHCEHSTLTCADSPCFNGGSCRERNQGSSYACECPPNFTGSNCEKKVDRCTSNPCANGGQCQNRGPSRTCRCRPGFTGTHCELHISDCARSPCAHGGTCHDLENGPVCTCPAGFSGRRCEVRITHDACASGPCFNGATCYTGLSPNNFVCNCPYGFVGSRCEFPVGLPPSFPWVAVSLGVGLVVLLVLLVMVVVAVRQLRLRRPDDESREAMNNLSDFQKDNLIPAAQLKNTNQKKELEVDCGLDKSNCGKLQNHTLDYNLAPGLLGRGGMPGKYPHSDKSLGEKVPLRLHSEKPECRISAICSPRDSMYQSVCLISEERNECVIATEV
Property Label: IC50
The reply must contain the numeric value and, after it, the unit.

Binder: 14A11 rat anti-DLL4 monoclonal antibody (antibody, rat IgG2a, V domains shown, rat IgG2a/K hybridoma mAb; also called MC13-14A11.3A4) VH: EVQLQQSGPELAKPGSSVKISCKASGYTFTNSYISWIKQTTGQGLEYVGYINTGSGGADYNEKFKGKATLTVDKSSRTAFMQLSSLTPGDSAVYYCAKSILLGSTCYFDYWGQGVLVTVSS VL: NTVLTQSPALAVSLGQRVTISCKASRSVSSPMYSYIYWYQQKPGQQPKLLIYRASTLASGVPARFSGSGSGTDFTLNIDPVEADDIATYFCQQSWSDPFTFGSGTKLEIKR
IC50: 1.6 nM
--
Binder: 37D10 rat anti-DLL4 monoclonal antibody (antibody, rat IgG2a, V domains shown, rat IgG2a/k hybridoma mAb; also called 40B10; 37D10 = 40B10) VH: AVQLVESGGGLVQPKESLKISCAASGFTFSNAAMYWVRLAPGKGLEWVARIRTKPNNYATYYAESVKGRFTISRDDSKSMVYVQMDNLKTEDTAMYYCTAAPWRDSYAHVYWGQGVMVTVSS VL: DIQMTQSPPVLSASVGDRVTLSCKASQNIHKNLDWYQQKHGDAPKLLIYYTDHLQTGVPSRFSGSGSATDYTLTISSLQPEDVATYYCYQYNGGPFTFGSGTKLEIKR
IC50: 3.8 nM
--
Binder: 15D6 rat anti-DLL4 monoclonal antibody (antibody, rat IgG2a, V domains shown, rat IgG2a/K hybridoma mAb; also called MC13-15D6.1G7) VH: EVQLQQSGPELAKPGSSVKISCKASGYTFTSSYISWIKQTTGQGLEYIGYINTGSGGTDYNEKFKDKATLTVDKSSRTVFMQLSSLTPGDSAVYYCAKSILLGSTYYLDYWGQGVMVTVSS VL: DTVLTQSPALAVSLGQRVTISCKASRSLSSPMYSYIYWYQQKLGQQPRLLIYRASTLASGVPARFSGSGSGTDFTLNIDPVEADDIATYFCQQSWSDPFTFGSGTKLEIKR
IC50: 1.5 nM

Dear colleague, I am looking for the recorded IC50 of the following binder: 1A11 rat anti-DLL4 monoclonal antibody (antibody, rat IgG1, V domains shown, rat IgG1/K hybridoma mAb; also called MC13-1A11.2E1; 1A11 (rat mAb)) VH: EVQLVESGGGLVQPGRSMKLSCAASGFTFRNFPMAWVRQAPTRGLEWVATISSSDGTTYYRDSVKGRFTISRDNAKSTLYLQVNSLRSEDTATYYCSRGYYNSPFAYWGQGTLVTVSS VL: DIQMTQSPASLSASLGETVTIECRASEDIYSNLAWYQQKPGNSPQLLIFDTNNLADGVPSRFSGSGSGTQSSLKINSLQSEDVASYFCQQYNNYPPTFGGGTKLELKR
0.8 nM
